I'd be grateful if you could share measured viability for these entries.
assay: reversal of MRP1-mediated doxorubicin resistance, pilot screen, H69AR cells, doxorubicin co-treatment (AID 601); settings: H69AR cells, CellTiter-Glo, 72 h; compound alone cytotoxicity; at 10 µM
Report only the number, with the unit % understood.

Which value of viability has been reported for Cc1ccc(C)c(S(=O)(=O)C(C#N)c2nc3ccccc3nc2N2CC(C)OC(C)C2)c1 (configuration not stated) in the records?
60.4

Which value of viability has been reported for Cc1ccc(N(C(C)C(=O)Nc2ccc(S(=O)(=O)N3CCOCC3)cc2)S(C)(=O)=O)cc1 (configuration not stated) in the records?
99.8

Which value of viability has been reported for `O=C(NCc1ccccc1)N[C@@H](Cc1ccccc1)C(=O)O` in the records?
92.6

Which value of viability has been reported for `COC(=O)/C=c1\sc2ncnn2c1=O` in the records?
78.7

Which value of viability has been reported for `CC1CCN(CCCNC(=O)c2coc3nc4ccccc4nc23)CC1` in the records?
92.9

Which value of viability has been reported for `O=C(CN1CCN(c2ccccn2)CC1)N1c2ccccc2CCc2ccccc21` in the records?
107

Which value of viability has been reported for COC1=CC(=O)CC(C)C12Oc1c(Cl)c(OC)cc(OC)c1C2=O (configuration not stated) in the records?
18.1

Which value of viability has been reported for `O=C(NCc1ccco1)c1ccccc1Nc1ccc(F)cc1` in the records?
79.2

Which value of viability has been reported for CN(C)CCOC(=O)C(c1ccccc1)C1(O)CCCC1 (configuration not stated) in the records?
102

Which value of viability has been reported for `COc1ccc(S(=O)(=O)NCCCN2CCOCC2)c2ccccc12` in the records?
86.8

Which value of viability has been reported for `Cn1c(=O)c(C(=S)NC(=O)C2CC2)c(N)n(Cc2ccccc2)c1=O` in the records?
78.1

Which value of viability has been reported for CCOC(=O)c1cc2c(=O)n3cccc(C)c3nc2n(CC2CCCO2)c1=NC(C)=O (configuration not stated) in the records?
81.3

Which value of viability has been reported for CCOC(=O)c1ccc(NC(=O)CSC2=NC(=O)C(CC)C(=O)N2)cc1 (configuration not stated) in the records?
105

Which value of viability has been reported for `O=C(CN1CCOCC1)Nc1cccc(C(=O)Nc2cccc(C(F)(F)F)c2)c1` in the records?
101

Which value of viability has been reported for `COc1ccc(-c2nnc(SCC(=O)Nc3cc(C)on3)n2C)cc1OC` in the records?
105

Which value of viability has been reported for CCC(C)(C)n1nnnc1C(c1ccc(OC)c(OC)c1)N1CCN(c2ccccc2)CC1 (configuration not stated) in the records?
88.8

Which value of viability has been reported for `CNC(=O)Oc1ccc2c(c1)[C@]1(C)CCN(C)[C@@H]1N2C` in the records?
93.9

Which value of viability has been reported for `CCCn1c(=O)c2[nH]c(C3CCCC3)nc2n(CCC)c1=O` in the records?
70.7

Which value of viability has been reported for COC(=O)c1c(NC(=O)C2CC=CCC2C(=O)O)sc(C(N)=O)c1C (configuration not stated) in the records?
98.2

Which value of viability has been reported for `Cc1cc(Nc2ccccc2)n(-c2ccccc2)n1` in the records?
101

Which value of viability has been reported for `CS(=O)(=O)N1CCc2cc(C(=O)N3CCCCC3)ccc21` in the records?
96.6

Which value of viability has been reported for `O=C(CSc1nc(C2CCCCC2)n(-c2ccccc2)n1)NCCN1C(=O)CSC1=O` in the records?
98.8

Which value of viability has been reported for COc1ccccc1CN1CC(C(=O)NCc2cccnc2)CC1=O (configuration not stated) in the records?
91.5

Which value of viability has been reported for `COc1cc(C(=O)Nc2cc(-c3ccccc3)[nH]n2)cc(OC)c1OC` in the records?
26

Which value of viability has been reported for `CCOc1ccc(CCNc2nc3c(c(=O)n(C)c(=O)n3C)n2CC)cc1OCC` in the records?
88.9

Which value of viability has been reported for COc1cc(C2c3c(n[nH]c3C)C(=O)N2c2ccc(C)cc2)ccc1O (configuration not stated) in the records?
101

Which value of viability has been reported for `O=c1[nH]c(Nc2ccccc2)cc2ccccc12` in the records?
101

---

I'd be grateful if you could share measured viability for these entries.
assay: HUVEC growth inhibition – cell-based, human, primary screen (AID 575); conditions: HUVEC proliferation, CellTiter-Glo luminescence, 72 h; at 10 µM; stronger effect = lower value;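 also: 100% = median of untreated cell wells with 0.1% DMSO on each plate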
Report only the number, with the unit % understood.

Which value of viability has been reported for `CCOC(=O)N1CCN(C(=O)CN(C)S(=O)(=O)c2ccc(OC)c(OC)c2)CC1` in the records?
104

Which value of viability has been reported for COc1ccc(-c2nnc(SC(C)C(=O)Nc3nccs3)n2-c2ccccc2)cc1OC (centres undefined) in the records?
83.5

Which value of viability has been reported for `CN(C)/C=C1\N=C(c2ccc(Cl)cc2Cl)OC1=O` in the records?
92.7

Which value of viability has been reported for Cc1ccc(NC(=O)COS(=O)c2ccc(C)cc2)cc1 (centres undefined) in the records?
69

Which value of viability has been reported for `O=C(Nc1nc(-c2cccs2)cs1)c1cccc(S(=O)(=O)N2CCCCC2)c1` in the records?
67.2

Which value of viability has been reported for `Cc1cc(NC(=O)CSc2nc(CCC3CCCC3)nc3ccccc23)no1` in the records?
92.2

Which value of viability has been reported for FC(F)(F)c1ccc(Sc2nnc(-c3cccs3)n2CC2CCCO2)nc1 (centres undefined) in the records?
104

Which value of viability has been reported for COc1ccc2c(c1)C1(Nc3ccccc3-c3nc4ccccc4n31)C(=O)N2 (centres undefined) in the records?
57.2

Which value of viability has been reported for Cc1ccc(N2CC(C(=O)Nc3ccc4c(c3)OCO4)CC2=O)cc1 (centres undefined) in the records?
101

Which value of viability has been reported for O=C(CSc1ncn[nH]1)NC1CC2CCC1C2 (centres undefined) in the records?
103

Which value of viability has been reported for `CC(C)OC(=O)CSc1nnc(-c2ccccn2)n1-c1ccccc1` in the records?
87.3

Which value of viability has been reported for `O=C(NCc1n[nH]c(=S)n1-c1ccc(F)cc1)c1ccco1` in the records?
102

Which value of viability has been reported for `COC(=O)c1cc(OC)c(OC)cc1NC(=O)CC1CCCCC1` in the records?
99.3

Which value of viability has been reported for `COc1ccccc1N1CCN(C(=O)CN(Cc2ccc(Cl)cc2)S(C)(=O)=O)CC1` in the records?
88.7

Which value of viability has been reported for `Cn1c(=O)c2c(nc(-n3ccnc3)n2C)n(C)c1=O` in the records?
105

Which value of viability has been reported for CCCC(=O)Nc1c2c(nn1-c1ccc(OC)cc1)CS(=O)C2 (centres undefined) in the records?
109

Which value of viability has been reported for CN1C(=O)c2oc3ccccc3c(=O)c2C1c1ccccn1 (centres undefined) in the records?
87

Which value of viability has been reported for `CCCN(CCO)Cc1cccc(Br)c1` in the records?
101

Which value of viability has been reported for `Cn1c(C(=O)NCCC2=CCCCC2)cc2c(=O)n3ccccc3nc21` in the records?
95.5

Which value of viability has been reported for `O=C(CSc1nnc2scc(-c3ccccc3)n12)Nc1nsc(-c2ccccc2)n1` in the records?
70.3

Which value of viability has been reported for `Nc1cc(C(=O)O)ccc1Nc1ccccc1` in the records?
86.8

Which value of viability has been reported for `O=C(CN1C(=O)COc2ccccc21)NCCN1CCc2ccccc2C1` in the records?
79.1

Which value of viability has been reported for COc1ccccc1CC(=O)NCC1CCCO1 (centres undefined) in the records?
113

Which value of viability has been reported for C=CCn1c(SCC(=O)NCC2CCCO2)nnc1C1CCCCC1 (centres undefined) in the records?
104

Which value of viability has been reported for `Cc1nnc(NC(=O)CSc2nnc(-c3ccc(S(=O)(=O)N4CCCC4)cc3)n2C)s1` in the records?
104

Which value of viability has been reported for COc1cccc(NC(=O)C2C3C=CC4(O3)C2C(=O)N(C(C)C)C4C(=O)NC2CCCCC2C)c1 (centres undefined) in the records?
105

Which value of viability has been reported for `O=C(c1cc(-c2cccs2)on1)N1CCc2ccccc2C1` in the records?
103

Which value of viability has been reported for `Nc1nonc1-c1noc(-c2ccccc2Br)n1` in the records?
54.7

Which value of viability has been reported for `COc1ccc2c(=O)c3c(=O)n(Cc4ccco4)c(-c4cc(OC)c(OC)c(OC)c4)nc3oc2c1` in the records?
67.9

Which value of viability has been reported for `O=C1c2ccccc2C(=O)N1CCCCN1CCN(CCCCN2C(=O)c3ccccc3C2=O)CC1` in the records?
93

Which value of viability has been reported for CCOC(=O)C1(CC)NC(c2cccc(F)c2)C2C(=O)N(CC)C(=O)C21 (centres undefined) in the records?
96.1

Which value of viability has been reported for `CCOC(=O)c1sc(Nc2nc3c(OC)cccc3s2)nc1C` in the records?
63.3

Which value of viability has been reported for `Cc1cccc(-n2c(N)c(C(=O)N3CCN(C)CC3)sc2=S)c1` in the records?
101

Which value of viability has been reported for `Cc1c(O)c(CN2CCCCC2)cc2c3c(c(=O)oc12)CCC3` in the records?
103

Which value of viability has been reported for `COc1cccc(C(=O)Nc2ccc(NC(C)=O)cn2)c1` in the records?
92.4

Which value of viability has been reported for CC1Cc2ccccc2N1S(=O)(=O)c1ccc2c(c1)n(C)c(=O)c(=O)n2C (centres undefined) in the records?
80.8

Which value of viability has been reported for `COc1ccc(N2CCN(Cc3cc(=O)oc4cc(C)c(Cl)c(C)c34)CC2)cc1` in the records?
84.1

Which value of viability has been reported for `Cc1ccc(-c2nnc(-c3ccc(Br)cc3)o2)o1` in the records?
99.9

Which value of viability has been reported for CCCN(CCC)C(=O)CC(c1ccc(F)cc1)c1ccco1 (centres undefined) in the records?
80.7
